- EXPERIMENTAL DETAILS: Selectivity index, ratio of IC50 for cytotoxicity against mouse NIH3T3 cells to IC50 for cytotoxicity against human HT-29 cells
- Type: toxicity, cell-based
- CONDITIONS USED: NIH3T3 cells versus HT-29 cells, read-out: Ratio IC50
Lab note: class by selectivity ratio, see lo (below 0.8), mid (0.8 to below 5), hi (5 or more)

smiles_input=Cc1cc(-c2nc3cc(F)ccc3o2)ccc1NC(=O)CCl label_class=lo
smiles_input=CN(C)CCCN1CCN(CC(=O)Nc2ccc(-c3nc4cc(Cl)ccc4o3)cc2)CC1 label_class=hi
smiles_input=Cc1cc(-c2nc3cc(Cl)ccc3o2)ccc1NC(=O)CN1CCN(CCN(C)C)CC1 label_class=mid
smiles_input=Cc1ccc2oc(-c3ccc(NC(=O)CN4CCN(CCCN(C)C)CC4)c(C)c3)nc2c1 label_class=mid
smiles_input=Cc1ccc2oc(-c3ccc(NC(=O)CCl)c(C)c3)nc2c1 label_class=lo
smiles_input=CN(C)CCN1CCN(CC(=O)Nc2ccc(-c3nc4cc(F)ccc4o3)cc2)CC1 label_class=hi
smiles_input=Cc1cc(-c2nc3cc(Cl)ccc3o2)ccc1NC(=O)CCl label_class=lo
smiles_input=O=C(CCl)Nc1ccc(-c2nc3cc(F)ccc3o2)cc1 label_class=mid

----------
- EXPERIMENTAL DETAILS: Selectivity index, ratio of IC50 for cytotoxicity against mouse NIH3T3 cells to IC50 for cytotoxicity against human HepG2 cells
- Assay type: toxicity, cell-based
- CONDITIONS USED: NIH3T3 cells versus HepG2 cells, read-out: Ratio IC50
# note: boundary value 7 maps to criterion not met; selectivity ratio below it maps to criterion met

smiles_input=Cc1cc(-c2nc3ccccc3o2)ccc1NC(=O)CN1CCN(CCCN(C)C)CC1 label_class="criterion not met"
smiles_input=Cc1cc(-c2nc3ccccc3o2)ccc1NC(=O)CCl label_class="criterion met"
smiles_input=CN(C)CCCN1CCN(CC(=O)Nc2ccc(-c3nc4cc(Cl)ccc4o3)cc2)CC1 label_class="criterion not met"
smiles_input=Cc1cc(-c2nc3cc(F)ccc3o2)ccc1NC(=O)CN1CCN(CCN(C)C)CC1 label_class="criterion met"
smiles_input=Cc1cc(-c2nc3ccccc3o2)ccc1NC(=O)CN1CCN(CCN(C)C)CC1 label_class="criterion met"
smiles_input=Cc1cc(-c2nc3cc(Cl)ccc3o2)ccc1NC(=O)CCl label_class="criterion met"
smiles_input=CN(C)CCCN1CCN(CC(=O)Nc2ccc(-c3nc4ccccc4o3)cc2)CC1 label_class="criterion met"
smiles_input=Cc1ccc2oc(-c3ccc(NC(=O)CN4CCN(CCN(C)C)CC4)cc3)nc2c1 label_class="criterion not met"
smiles_input=Cc1ccc2oc(-c3ccc(NC(=O)CN4CCN(CCCN(C)C)CC4)c(C)c3)nc2c1 label_class="criterion met"
smiles_input=Cc1ccc2oc(-c3ccc(NC(=O)CCl)cc3)nc2c1 label_class="criterion met"

----------
- Test system: C6
- EXPERIMENTAL DETAILS: Induction of apoptosis in rat C6 cells assessed as apoptotic cells at IC50 concentration measured after 24 hrs by Annexin V-FITC/PI staining based flow cytometry method relative to control
- Assay type: functional
Listing: Activity of selected compounds
MEASUREMENT KIND: Activity (%)

smiles_input=Cc1ccc2oc(-c3ccc(NC(=O)CN4CCN(CCCN(C)C)CC4)cc3)nc2c1 measurement_kind=Activity quantitative_result=14
smiles_input=CN(C)CCCN1CCN(CC(=O)Nc2ccc(-c3nc4cc(Cl)ccc4o3)cc2)CC1 measurement_kind=Activity quantitative_result=13.6
smiles_input=Cc1ccc2oc(-c3ccc(NC(=O)CN4CCN(CCN(C)C)CC4)cc3)nc2c1 measurement_kind=Activity quantitative_result=19.3
smiles_input=COc1cccc2c1C(=O)c1c(O)c3c(c(O)c1C2=O)C[C@@](O)(C(=O)CO)C[C@@H]3O[C@H]1C[C@H](N)[C@H](O)[C@H](C)O1 measurement_kind=Activity quantitative_result=35.7
smiles_input=CN(C)CCN1CCN(CC(=O)Nc2ccc(-c3nc4cc(F)ccc4o3)cc2)CC1 measurement_kind=Activity quantitative_result=46
smiles_input=CN(C)CCN1CCN(CC(=O)Nc2ccc(-c3nc4cc(Cl)ccc4o3)cc2)CC1 measurement_kind=Activity quantitative_result=10.7
